readout label: MDR1-MDCK efflux ratio

Below, 2 compounds whose answers are already recorded.
>>> data_value("Cc1cc(NC2CCCC2)nc(C2CCNCC2)n1")
66.7
>>> data_value("Cc1ccc(CN(C)c2ncnc3c2cnn3C)o1")
0.657

I = Cc1cncc(C2CCN(Cc3cnccn3)CC2)n1
II = O=C(Cc1ccc(Cl)c(Cl)c1)N1CC(n2ccnn2)C1
III = O=C(Cn1cc(NCc2cccc(Cl)c2)cn1)N1CCOCC1
IV = O=C1CN(C(=O)c2cccc(Oc3cccc(C(F)(F)F)c3)c2)CCN1
Rank items: key MDR1-MDCK efflux ratio, increasing. Put the labels in the order asked and list them.
I, II, III, IV
(I: 0.65, II: 2.09, III: 4.24, IV: 8.39)

---

readout label: intrinsic clearance, rat liver microsomes (mL/min/kg)

A = CN1CCN(c2oc(-c3cccc4ccccc34)nc2C#N)CC1
B = O=C(CCCc1cc(Cl)sc1Cl)N1CCC(O)CC1
C = O=c1[nH]c2ccccc2n1C1CCN(CCOc2ccccc2)CC1
// smallest intrinsic clearance, rat liver microsomes at index 0, largest at the end Put the labels in the order asked and list them.
C, B, A

---

readout label: fraction unbound, human plasma

Below, 8 compounds whose answers are already recorded.
>>> data_value("C=CC(=O)Nc1cccc(Oc2nc(Nc3ccc(N4CCN(C)CC4)cc3)nc3ccoc23)c1")
0.014
>>> data_value("CC(=O)NCCNc1cc(Cl)nn2c(-c3cccc(S(=O)(=O)N(C)C)c3)c(C)nc12")
0.048
>>> data_value("CCc1nc2c(C)cc(N3CCN(CC(=O)N4CC(O)C4)CC3)cn2c1N(C)c1nc(-c2ccc(F)cc2)c(C#N)s1")
0.00624
>>> data_value("CC(C)(C)c1ccc(-c2nc3n(c(=O)c2C#N)CCS3)cc1")
0.0539
>>> data_value("Cn1c(C2CC2)nc2c1CCN(c1ncnc3ccsc13)C2")
0.173
>>> data_value("CN(Cc1ccccc1)C1(C(=O)N2CCNC(=O)CC2)Cc2ccccc2C1")
0.0803
>>> data_value("CN(C)C(=O)C1(Cc2ccccc2-c2ccccc2)CCN(C(=O)C2CCCO2)CC1 (stereo not given)")
0.0799
>>> data_value("COc1nn(C)cc1C(=O)Nc1cccc2cnccc12")
0.32

1 = Cc1nnc(CN(C)CC(C)Oc2ccc(Cl)c(Cl)c2)n1C (stereo not given)
2 = O=C(NC12CCCC1NCC2)c1ccc(-c2cn[nH]c2)cc1 (stereo not given)
Sorting ascending by fraction unbound, human plasma, which comes first: 1 or 2 ? Answer = label.
1
(1: 0.0844, 2: 1)

---

readout label: intrinsic clearance, rat liver microsomes (mL/min/kg)

>>> data_value("CCCc1noc2nc(-c3ccncc3)cc(C(=O)O)c12")
18.1
>>> data_value("CC(=O)c1ccc(-c2ccc(-c3nn[nH]n3)cc2)cc1")
52.7
>>> data_value("O=C(CSC1CCCC1)N1CCC(n2ccnn2)CC1")
138
>>> data_value("O=c1cc(-c2cc(F)c(Cl)nc2Cl)[nH]c2c(-c3ccccc3)c(C(F)(F)F)nn12")
19.4
>>> data_value("O=c1c2cccnc2ncn1[C@H]1CCN(Cc2ccccc2)C1")
162

A = CN(C)c1cnn(CCC(C#N)(c2ccccc2)c2ccccc2)c(=O)c1
B = C[C@@H](Oc1cc(-c2cnn(C3CCNCC3)c2)cnc1N)c1c(Cl)ccc(F)c1Cl
C = CC(C)c1cc(C(=O)Nc2ncccc2Cl)no1
Rank items: key intrinsic clearance, rat liver microsomes, increasing. Put the labels in the order asked and list them.
C, B, A
(C: 65.1 mL/min/kg, B: 106 mL/min/kg, A: 1260 mL/min/kg)

A = CC(C)c1nc2c(n1C)CCN(C(=O)c1cccc(C(F)(F)F)c1F)C2
B = COc1cc(CNc2nnn[nH]2)cc(Br)c1OCc1ccc(Cl)cc1
C = Cc1noc(CC2CCN(Cc3cccnc3)CC2)n1
Rank items: key intrinsic clearance, rat liver microsomes, increasing. Put the labels in the order asked and list them.
C, B, A
(C: 48.9 mL/min/kg, B: 74.5 mL/min/kg, A: 238 mL/min/kg)

1 = Cc1c(C(=O)NCCc2cc3nc(-c4ccco4)ccn3n2)cnn1C
2 = COC(=O)N[C@H](C)CNc1nccc(-c2cn(C(C)C)nc2-c2cc(Cl)cc(NS(C)(=O)=O)c2F)n1
3 = Cn1cc(CNc2ncccn2)c(C(C)(C)C)n1
4 = CC#CCCNC(=O)c1cccnc1C
5 = Cc1cc(OCC(=O)N(C)C2CCCCCCC2)no1
Rank items: key intrinsic clearance, rat liver microsomes, increasing. Put the labels in the order asked and list them.
4, 2, 1, 3, 5

---

readout label: intrinsic clearance, human liver microsomes (L/h/kg)

Below, 4 molecules whose answers are already recorded.
>>> data_value("CC(C)C[C@H](C(=O)N[C@H](C(=O)OC1CCCC1)c1ccccc1)[C@@H](O)C(=O)NO")
3.32
>>> data_value("Cc1ccsc1C(=O)NCc1ccc2c(c1)OCCCO2")
3.18
>>> data_value("CC(C)c1cc(N2CCc3[nH]nc(C4CC4)c3C2)n2nccc2n1")
4.22
>>> data_value("CC(C)(C)c1cnc(CN2CCC(=O)Nc3cc(F)ccc32)o1")
5.92

I = O=C1CCCN1CCCc1nc(Cc2c(Cl)cccc2Cl)n[nH]1
II = NC(=O)CN1CCC(COc2ccccc2C(F)(F)F)CC1
Sorting ascending by intrinsic clearance, human liver microsomes, which comes first: I or II ? Answer = label.
II
(II: 0.773 L/h/kg, I: 2.77 L/h/kg)

a = O=C(NCc1nnc2n1-c1ccccc1CC2)c1ccc2ccccc2c1
b = Cc1ccc(-c2cnc3ccccc3n2)cc1N
Sorting ascending by intrinsic clearance, human liver microsomes, which comes first: a or b ? Answer = label.
a

---

readout label: intrinsic clearance, rat liver microsomes (mL/min/kg)

Below, 6 compounds whose answers are already recorded.
>>> data_value("COc1ccccc1-c1cc(NC(=O)c2cccc(N3CCNC3=O)c2)[nH]n1")
103
>>> data_value("N#Cc1ccc2nc(NCCn3ccnc3)ccc2c1")
54.5
>>> data_value("Cc1ccc(-n2nc(C(C)(C)C)cc2NC(=O)Nc2ccc(OCCN3CCOCC3)c3ccccc23)cc1")
704
>>> data_value("O=c1c2ccccc2cnn1Cc1cccc(OCC(F)(F)F)c1")
51.3
>>> data_value("Fc1cccc2c1CN(Cc1c[nH]nc1-c1cccnc1)CC2")
1240
>>> data_value("O=C(CCNc1ncccn1)N1CCc2ccccc2C1")
146

1 = N#Cc1ccc(N2CCc3c(ncn3C3CC3)C2)nc1
2 = COc1ccc(-c2nc(C3CCN(C(=O)c4sc(C)nc4C)CC3)[nH]c2C(N)=O)cc1
Sorting ascending by intrinsic clearance, rat liver microsomes, which comes first: 1 or 2 ? Answer = label.
2
(2: 39.4 mL/min/kg, 1: 63.7 mL/min/kg)

1 = C#CCN1CCC[C@H]1C(=O)Nc1cnn(-c2ncccn2)c1
2 = CN1CCC(CNc2ccc3ncc(-c4cccc(OC(F)(F)F)c4)n3n2)CC1
3 = O=C1CSc2ccc(C(=O)Nc3cc(C4CC4)n[nH]3)cc2N1
4 = Cc1nc(C)c(CNc2cnn(-c3ccccc3)c2)s1
Highest intrinsic clearance, rat liver microsomes first, then in falling order down to the smallest. Put the labels in the order asked and list them.
2, 3, 4, 1

A = CC(=O)Nc1ccnn1C1CCN(Cc2ccccc2C#Cc2ccccc2)CC1
B = CC(=O)N1CCCN(Cc2ccc(C(=O)N3CCCC3)cc2)c2ccccc21
Hi, I'm comparing A with B and wondering which one has the bigger number for intrinsic clearance, rat liver microsomes. Any idea? Answer = label.
A
(A: 507 mL/min/kg, B: 327 mL/min/kg)

I = c1ccc2[nH]c(SCc3cn4ccccc4n3)nc2c1
II = CCOc1ccc(OCCN2CCN(C(C)=O)CC2)cc1
Sorting ascending by intrinsic clearance, rat liver microsomes, which comes first: I or II ? Answer = label.
II
(II: 17.5 mL/min/kg, I: 462 mL/min/kg)

---

readout label: MDR1-MDCK efflux ratio

>>> data_value("Clc1ccc(NCc2ccoc2)nn1")
0.594
>>> data_value("O=C(CN1CCC(n2c(=O)[nH]c3ccccc32)CC1)N1CCc2ccccc21")
51
>>> data_value("COc1cc2c(cc1OC)CN(C(=O)C1CCCN(C(=O)OC(C)(C)C)C1)CC2 (configuration not stated)")
1.79
>>> data_value("C=CC(=O)N1C[C@H](Nc2ncnc3[nH]ccc23)CC[C@@H]1C")
65.6
>>> data_value("Cc1ccc(C)c(OCCN(C)C(=O)c2ccc3c(c2)nnn3C)c1")
1.23
>>> data_value("O=C(NCC1(c2ccc(F)cc2)CCOCC1)c1ccccn1")
0.793
>>> data_value("Cc1c(C(=O)Nc2ccc(CO)cc2)nnn1Cc1ccc(Cl)c(Cl)c1")
0.564
>>> data_value("Cc1ccc(CC(=O)Nc2nc(C)no2)cn1")
2

P = Cc1ccc(-c2noc3nc(C)cc(C(=O)O)c23)cc1
Q = Cc1nc2c(c(N(C)Cc3ccccc3)n1)CCN(Cc1ccccc1)C2
Hi, I'm comparing P with Q and wondering which one has the bigger number for MDR1-MDCK efflux ratio. Any idea? Answer = label.
P
(P: 2.93, Q: 0.742)

I = N#CC1(C(=O)NCC2(C3CC3)CC2)CCCCC1
II = C#CCNC(=O)CCc1c(C)nn(C)c1C
Hi, I'm comparing I with II and wondering which one has the bigger number for MDR1-MDCK efflux ratio. Any idea? Answer = label.
II
(II: 7.96, I: 0.713)

Values compiled from the Biogen ADME set (Fang et al. 2023).
